test: method code SF-HPLC, from DOI: 10.2478/s11532-013-0336-y
Assignment: determine reported logP for the given molecules.
Please give the numeric answer without any surrounding text.

What the record says about C/C=C/c1c(OC)cc(OC)cc1OC : logP is 2.61

What the record says about CCCCCCCC(O)c1cc(OC)c(OC)c(OC)c1 (stereo not given) : logP is 3.95

What the record says about C=CCOc1c(OC)cc(C=CC)cc1OC : logP is 3.22

What the record says about CC/C=C\c1cc(OC)c(OC)c(OC)c1 : logP is 3.06

What the record says about CCC=Cc1cc(OC)c(OC(=O)c2cccnc2)c(OC)c1 : logP is 3.5

What the record says about C/C=C/c1cc(OC)c(OC)cc1OC : logP is 2.44

What the record says about C/C=C/c1cc(OC)c(OC)c(OC)c1 : logP is 2.27

What the record says about C=CCOc1c(OC)cc(C=CCCC)cc1OC : logP is 4.28

What the record says about C=CCOc1c(OC)cc(C=CCC)cc1OC : logP is 3.81

What the record says about CCCC(O)c1cc(OC)c(OC)c(OC)c1 (stereo not given) : logP is 1.94

What the record says about CCC(O)c1cc(OC)c(OC)c(OC)c1 (stereo not given) : logP is 1.45

What the record says about CCCCCC(O)c1cc(OC)c(OC)c(OC)c1 (stereo not given) : logP is 2.9

What the record says about CCCC=Cc1cc(OC)c(OC(=O)c2cccnc2)c(OC)c1 : logP is 3.96

What the record says about CC/C=C\c1c(OC)cc(OC)cc1OC : logP is 3.56

What the record says about C/C=C/c1ccc(OC)c(OC)c1OC : logP is 3.09

What the record says about CCCC/C=C\c1c(OC)cc(OC)cc1OC : logP is 4.57

What the record says about CCC/C=C\c1c(OC)cc(OC)cc1OC : logP is 3.97

What the record says about C/C=C/c1c(OC)ccc(OC)c1OC : logP is 2.73

What the record says about CC=Cc1cc(OC)c(OC(=O)c2cccnc2)c(OC)c1 : logP is 2.94

What the record says about C/C=C/c1cc(OC)cc(OC)c1OC : logP is 2.93

What the record says about CCCCC=Cc1cc(OC)c(OC)c(OC)c1 : logP is 4.1

What the record says about CCCC=Cc1cc(OC)c(OC)c(OC)c1 : logP is 3.67

What the record says about CCCCCCC(O)c1cc(OC)c(OC)c(OC)c1 (stereo not given) : logP is 3.59

What the record says about CCCCC(O)c1cc(OC)c(OC)c(OC)c1 (stereo not given) : logP is 2.49

What the record says about CCCCCC=Cc1cc(OC)c(OC)c(OC)c1 : logP is 4.5
